Values were extracted from ChEMBL document CHEMBL1126582.

Tested on: Human immunodeficiency virus 1
Assay Procedure: In vitro for inhibition of cytopathic effect of HIV-1 3B in MT-4 lymphocytes.
Format: functional, organism-based
Flag rule - EC50 less than 500 nM flags met; the remaining entries get not met.

| Smiles Notation | Label Class |
| --- | --- |
| CC(C)[C@H](NC(=O)c1cc2ccccc2[nH]1)C(=O)N[C@@H](Cc1ccccc1)[C@@H](O)[C@@H](O)[C@H](Cc1ccccc1)NC(=O)[C@H](NC(=O)c1cc2ccccc2[nH]1)C(C)C | met |
| CC(C)[C@H](NC(=O)N(C)CCc1ccccn1)C(=O)N[C@@H](Cc1ccccc1)[C@@H](O)[C@H](O)[C@H](Cc1ccccc1)NC(=O)[C@H](NC(=O)N(C)CCc1ccccn1)C(C)C | not met |
| CC(C)[C@H](NC(=O)N(C)Cc1nc2ccccc2[nH]1)C(=O)N[C@@H](Cc1ccccc1)[C@H](O)[C@H](O)[C@H](Cc1ccccc1)NC(=O)[C@H](NC(=O)N(C)Cc1nc2ccccc2[nH]1)C(C)C | not met |
| CC(C)[C@H](NC(=O)N(C)Cc1cscn1)C(=O)N[C@@H](Cc1ccccc1)[C@@H](O)[C@H](O)[C@H](Cc1ccccc1)NC(=O)[C@H](NC(=O)N(C)Cc1cscn1)C(C)C | met |
| CC(C)[C@H](NC(=O)OCc1ccccn1)C(=O)N[C@@H](Cc1ccccc1)[C@H](O)[C@H](O)[C@H](Cc1ccccc1)NC(=O)[C@H](NC(=O)OCc1ccccn1)C(C)C | met |
| CC(C)[C@H](NC(=O)N(C)Cc1cccnc1)C(=O)N[C@@H](Cc1ccccc1)[C@H](O)[C@H](O)[C@H](Cc1ccccc1)NC(=O)[C@H](NC(=O)N(C)Cc1cccnc1)C(C)C | not met |
| CC(C)[C@H](NC(=O)N(C)Cc1ccccn1)C(=O)N[C@@H](Cc1ccccc1)[C@H](O)[C@@H](O)[C@H](Cc1ccccc1)NC(=O)[C@H](NC(=O)N(C)Cc1cccnc1)C(C)C | met |
| CC(C)[C@H](NC(=O)N(C)Cc1nc2ccccc2[nH]1)C(=O)N[C@@H](Cc1ccccc1)[C@@H](O)[C@H](O)[C@H](Cc1ccccc1)NC(=O)[C@H](NC(=O)N(C)Cc1nc2ccccc2[nH]1)C(C)C | not met |
| CC(C)[C@H](NC(=O)N(C)Cc1ccccn1)C(=O)N[C@@H](Cc1ccccc1)[C@@H](O)[C@H](O)[C@H](Cc1ccccc1)NC(=O)[C@H](NC(=O)N(C)Cc1ccccn1)C(C)C | met |
| CC(C)[C@H](NC(=O)OCc1ccccc1)C(=O)N[C@@H](Cc1ccccc1)[C@H](O)[C@H](O)[C@H](Cc1ccccc1)NC(=O)[C@H](NC(=O)OCc1ccccc1)C(C)C | met |

----------
Assay Procedure: Cmax in rat plasma after oral dose (10 mg/kg)
Assay type: ADME, organism-based
Design: dose 10 mg/kg, route oral
Here the recorded Cmax is given for each entry.
Endpoint: Cmax (nM)

| Compound | Unit Abbreviation | Endpoint Value |
| --- | --- | --- |
| CC(C)[C@H](NC(=O)N1CCN(C)CC1)C(=O)N[C@@H](Cc1ccccc1)[C@@H](O)[C@H](Cc1ccccc1)NC(=O)[C@H](NC(=O)OCc1ccccc1)C(C)C | nM | 250 |
| CC(C)[C@H](NS(=O)(=O)N(C)Cc1ccccn1)C(=O)N[C@@H](Cc1ccccc1)C(O)[C@H](Cc1ccccc1)NC(=O)[C@H](NS(=O)(=O)N(C)Cc1ccccn1)C(C)C (some centres undefined) | nM | 2100 |
| CC(C)[C@H](NS(=O)(=O)N(C)Cc1ccccn1)C(=O)N[C@@H](Cc1ccccc1)[C@H](O)[C@H](O)[C@H](Cc1ccccc1)NC(=O)[C@H](NS(=O)(=O)N(C)Cc1ccccn1)C(C)C | nM | 1160 |
| CC(C)[C@H](NC(=O)OCc1ccncc1)C(=O)N[C@@H](Cc1ccccc1)C(O)[C@H](Cc1ccccc1)NC(=O)[C@H](NC(=O)OCc1ccncc1)C(C)C (some centres undefined) | nM | 200 |
